assay: log P determination by HPLC on reversed-phase columns (C 18), analogously to OECD Guideline 117; type: physicochemical; conditions: LC-MS in the acidic range, pH 2.7, 0.1% aqueous formic acid / acetonitrile, HPLC reversed-phase C 18
PROPERTY_MEASURED: logP (HCOOH)

INSERT INTO results (compound, property_measured, reported_value) VALUES
  ('Cc1ccc(-n2c(=O)n(C3CC3)c(=O)n2C(C)C)cc1SCC(F)(F)F', 'logP (HCOOH)', 3.65),
  ('Cc1cc(C)c([S+]([O-])CC(F)(F)F)cc1-n1c(=O)n(C2CC2)c(=O)n1C (stereo not shown)', 'logP (HCOOH)', 1.98),
  ('Cc1ccc(-n2c(=O)n(C)c(=O)n2-c2ccc(C)c([S+]([O-])CC(F)(F)F)c2)cc1SCC(F)(F)F (stereo not shown)', 'logP (HCOOH)', 3.46),
  ('Cc1cc(F)c(-n2c(=O)n(-c3cccc(C(F)(F)F)c3)c(=O)n2C)cc1SCC(F)(F)F', 'logP (HCOOH)', 4.09);

====

Measured logP (HCOOH) by item
test: log P determination by HPLC on reversed-phase columns (C 18), analogously to OECD Guideline 117; type: physicochemical; conditions: LC-MS in the acidic range, pH 2.7, 0.1% aqueous formic acid / acetonitrile, HPLC reversed-phase C 18
PROPERTY_MEASURED: logP (HCOOH)

INSERT INTO results (compound, reported_value) VALUES
  ('Cc1cc(F)c(N2C(=O)C(=O)N(C(C)(C)C)C2=S)cc1[S+]([O-])CC(F)(F)F (centres unmarked)', 3.45),
  ('Cc1cc(F)c(N2C(=O)C3(CCC3)C(=O)N2C)cc1SCC(F)(F)F', 3.00),
  ('C=CCn1c(=O)n(C2CC2)c(=O)n1-c1ccc(C)c([S+]([O-])CC(F)(F)F)c1 (centres unmarked)', 2.28),
  ('Cn1c(=O)n(C)n(-c2cc(SCC(F)(F)F)c(Cl)cc2F)c1=O', 2.71),
  ('Cn1c(=O)n(C2CC2)c(=O)n1-c1ccc(Cl)c(SCC(F)(F)F)c1', 3.04),
  ('Cc1cc(F)c(-n2c(=O)n(C(C)C)c(=O)n2C(C)(C)C)cc1[S+]([O-])CC(F)(F)F (racemic)', 3.40),
  ('CCC(C)n1c(=O)n(C2CC2)c(=O)n1-c1cc(SCC(F)(F)F)c(C)cc1F (centres unmarked)', 3.86),
  ('Cc1cc(F)c(N2C(=O)CSC2=NCC(C)(C)C)cc1[S+]([O-])CC(F)(F)F (racemic)', 3.66);

====

Measured nematicidal efficacy in % (formation of galls) by item
tested on: southern root-knot nematode (Meloidogyne incognita); assay: Meloidogyne incognita test (MELGIN); format: in vivo; settings: lettuce in sand; application rate 20 ppm; after 14 days
PROPERTY_MEASURED: nematicidal efficacy in % (formation of galls)

INSERT INTO measurements (compound, reported_value) VALUES
  ('Cc1cc(F)c(-n2c(=S)n(C3CC3)c(=S)n2C)cc1SCC(F)(F)F [Example 182]', '90%'),
  ('Cc1ccc(-n2c(=O)n(C3CC3)c(=O)n2C)cc1SCC(F)(F)F [Example 36]', '100%'),
  ('Cn1c(=O)n(C2CC2)c(=O)n1-c1cc([S+]([O-])CC(F)(F)F)c(Cl)cc1F (centres unmarked) [Example 38]', '100%'),
  ('C=CCn1c(=O)n(C)n(-c2cc([S+]([O-])CC(F)(F)F)c(C)cc2F)c1=O (centres unmarked) [Example 80]', '90%'),
  ('COc1ccc(-n2c(=O)n(C3CC3)c(=O)n2C)cc1[S+]([O-])CC(F)(F)F (centres unmarked) [Example 41]', '90%'),
  ('Cc1cc(F)c(N2CC(=O)N(C)C2=O)cc1[S+]([O-])CC(F)(F)F (centres unmarked) [Example 208]', '90%'),
  ('CCn1c(=O)n(C)n(-c2cc([S+]([O-])CC(F)(F)F)c(C)cc2F)c1=O (centres unmarked) [Example 74]', '90%'),
  ('Cn1c(=O)n(C)n(-c2cc([S+]([O-])CC(F)(F)F)c(F)cc2F)c1=O (centres unmarked) [Example 70]', '90%'),
  ('Cc1cc(F)c(-n2c(=O)n(C3CC3)c(=S)n2C)cc1SCC(F)(F)F [Example 181]', '90%'),
  ('Cc1cc(F)c(-n2c(=O)n(C3CC3)c(=O)n2C)cc1SCC(F)(F)F [Example 35]', '100%'),
  ('Cn1c(=O)n(C)n(-c2cc([S+]([O-])CC(F)(F)F)c(Cl)cc2F)c1=O (centres unmarked) [Example 29]', '90%'),
  ('Cn1c(=O)n(C)n(-c2cc(SCC(F)(F)F)c(Cl)cc2F)c1=O [Example 30]', '90%'),
  ('Cc1cc(C)c([S+]([O-])CC(F)(F)F)cc1-n1c(=O)n(C)c(=O)n1C (centres unmarked) [Example 33]', '90%'),
  ('COc1ccc(-n2c(=O)n(C3CC3)c(=O)n2C)cc1SCC(F)(F)F [Example 42]', '90%'),
  ('Cc1cc(F)c(N2CC(=O)N(C3CC3)C2=O)cc1SCC(F)(F)F [Example 210]', '90%'),
  ('Cn1c(=O)n(C2CC2)c(=O)n1-c1ccc(C#N)c(SCC(F)(F)F)c1 [Example 44]', '90%'),
  ('Cc1cc(F)c(N2C(=O)CSC2=NCC(F)(F)F)cc1[S+]([O-])CC(F)(F)F (centres unmarked) [Example 13]', '90%');

====

Measured chromatographic logP by item
experiment: log P determination by HPLC on reversed-phase columns (C 18), analogously to OECD Guideline 117; format: physicochemical; conditions: reversed-phase C18 HPLC column; acidic range, pH 2.7, 0.1% aqueous formic acid and acetonitrile; read-out: log P[a] / log P(HCOOH)
PROPERTY_MEASURED: chromatographic logP

INSERT INTO results (compound, reported_value) VALUES
  ('[O-][S+](CC(F)(F)F)c1cc(B(O)O)ccc1Cl (centres unmarked)', 1.74),
  ('Cc1cc(C)c([S+]([O-])CC(F)(F)F)cc1B(O)O (centres unmarked)', 1.61),
  ('Cc1cc(F)c(N2C(=O)CSC2=NCC(F)(F)F)cc1[S+]([O-])CC(F)(F)F (centres unmarked)', 2.7),
  ('CC1(C)OB(c2ccc(Cl)c(SCC(F)(F)F)c2)OC1(C)C', 5.27),
  ('Cc1cc(F)c(N2C(=O)C(=O)N(CC(F)F)C2=O)cc1SCC(F)(F)F', 3.22);

====

assay: log P determination by HPLC on reversed-phase columns (C 18), analogously to OECD Guideline 117; format: physicochemical; settings: LC-MS in the acidic range, pH 2.7, 0.1% aqueous formic acid / acetonitrile, HPLC reversed-phase C 18
PROPERTY_MEASURED: logP (HCOOH)

INSERT INTO results (compound, reported_value) VALUES
  ('CCn1c(=O)n(C)n(-c2ccc(C)c([S+]([O-])CC(F)(F)F)c2)c1=O (stereo not shown)', 1.96),
  ('Cc1cc(F)c(-n2c(=O)n(C(C)C)c(=O)n2C)cc1SCC(F)(F)F', 3.35),
  ('Cc1ccc(-n2c(=O)n(C)c(=O)n2Cc2ccccc2)cc1SCC(F)(F)F', 3.62),
  ('Cc1cc(F)c(N2C(=O)C(=O)N(C3CC3)C2=O)cc1SCC(F)(F)F', 3.24);

====

test system: southern root-knot nematode (Meloidogyne incognita); assay: Meloidogyne incognita test (MELGIN); assay type: in vivo; conditions: lettuce in sand; application rate 20 ppm; after 14 days
Measured nematicidal efficacy in % (formation of galls) by item
PROPERTY_MEASURED: nematicidal efficacy in % (formation of galls) (%)

INSERT INTO measurements (molecule, unit_of_measurement, reported_value) VALUES
  ('Cn1c(=O)n(C)n(-c2cc([S+]([O-])CC(F)(F)F)c(Br)cc2F)c1=O (stereo not shown) [Example 69]', '%', 90),
  ('Cc1cc(F)c(N2C(=O)C3(CCC3)C(=O)N2C)cc1SCC(F)(F)F [Example 179]', '%', 90),
  ('Cc1ccc(-n2c(=O)n(C3CC3)c(=O)n2C)cc1[S+]([O-])CC(F)(F)F (stereo not shown) [Example 37]', '%', 100),
  ('CCn1c(=O)n(C2CC2)c(=O)n1-c1cc(SCC(F)(F)F)c(C)cc1F [Example 127]', '%', 90),
  ('Cn1c(=O)n(C2CC2)c(=O)n1-c1ccc(Br)c([S+]([O-])CC(F)(F)F)c1 (stereo not shown) [Example 45]', '%', 90),
  ('Cc1cc(F)c(N2CC(=O)N(C3CC3)C2=O)cc1[S+]([O-])CC(F)(F)F (stereo not shown) [Example 209]', '%', 90),
  ('C=CCn1c(=O)n(C)n(-c2cc(SCC(F)(F)F)c(C)cc2F)c1=O [Example 81]', '%', 90),
  ('Cc1ccc(-n2c(=O)n(C)c(=O)n2C)cc1SCC(F)(F)F [Example 20]', '%', 90),
  ('CCn1c(=O)n(C)n(-c2cc(SCC(F)(F)F)c(C)cc2F)c1=O [Example 83]', '%', 100),
  ('Cc1cc(F)c(-n2c(=O)n(C3CC3)c(=O)n2C)cc1[S+]([O-])CC(F)(F)F (stereo not shown) [Example 34]', '%', 90),
  ('Cc1ccc(-n2c(=O)n(C)c(=O)n2CC2CC2)cc1SCC(F)(F)F [Example 52]', '%', 100),
  ('Cn1c(=O)n(C2CC2)c(=O)n1-c1ccc(C(F)(F)F)c([S+]([O-])CC(F)(F)F)c1 (stereo not shown) [Example 54]', '%', 90),
  ('Cc1cc(F)c(N2C(=O)C(C)(C)C(=O)N2C)cc1[S+]([O-])CC(F)(F)F (stereo not shown) [Example 177]', '%', 90);
